Every entry's value here was drawn from patent US8058437B2.

# test.description: Pharmacokinetic experiments in rats (IV, oral suspension, oral solution)
# Type: in vivo
# protocol.conditions: male, rat, plasma, oral, 20 mg/kg, Group 2, PO-Suspension 20 mg/kg, 8 hr, Mean
measured.attribute: concentration at 8 h (µg/mL)
Answers are plain numbers, in µg/mL.

Exercise: Suppose we examine the molecule O=C(NNc1nc2cc(F)ccc2n2cccc12)c1cnccn1 [NVX-144, reference compound] ; what concentration at 8 h value has been reported?
Key: 0.0109

---

# test.description: Pharmacokinetic experiments in rats (IV, oral suspension, oral solution)
# Format: in vivo
# protocol.conditions: male, rat, plasma, iv, 5 mg/kg, IV 5 mg/kg, 0.083 h, individual animals
measured.attribute: concentration at 0.083 h (ng/mL)
Numbers only, in ng/mL.

Exercise: # query: concentration at 0.083 h of entry O=C(NNc1nc2cc(F)ccc2n2cccc12)c1cnccn1.O=C(O)C(=O)O
Key: 1810
